Molecular target: C5a receptor (Homo sapiens, UniProt P21730)
Sequence (P21730 1-350): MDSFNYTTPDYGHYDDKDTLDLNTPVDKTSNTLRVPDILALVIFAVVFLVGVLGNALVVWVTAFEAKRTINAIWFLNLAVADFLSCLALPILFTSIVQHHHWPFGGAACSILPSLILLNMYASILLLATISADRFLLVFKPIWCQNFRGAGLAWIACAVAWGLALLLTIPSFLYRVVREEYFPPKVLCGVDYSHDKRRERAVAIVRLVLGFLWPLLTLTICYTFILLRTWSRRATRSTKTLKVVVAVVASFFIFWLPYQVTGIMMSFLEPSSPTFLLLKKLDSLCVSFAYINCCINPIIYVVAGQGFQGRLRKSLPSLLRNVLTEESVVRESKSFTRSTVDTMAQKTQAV
Experiment: Calcium Mobilization Assay (C5a-induced Ca2+ mobilization, FLIPR, differentiated U937 cells)
Settings: […] recombinant human C5a, 20 min pre-incubation, multiple values = duplicate experiments, read-out: C5a Induced Ca Mobil. Average IC50
Documented IC50 across a set of compounds
Give the value in µM but do not write µM after it.

Before answering, review these 8 worked examples.
- compound: "CCc1cccc(CC)c1-c1cc(OC)c2c(n1)CCCC2Nc1ccc(F)cc1CO (stereo not drawn) [Compound 7]"
  IC50, µM: 0.053
- compound: "CCN(c1cccc2ccccc12)C1CCCc2nc(-c3ccccc3C)cc(OC)c21 (stereo not drawn) [Compound 30]"
  IC50, µM: 0.354
- compound: "CCc1cccc(CC)c1-c1cc(OC)c2c(n1)CCCC2N(C)c1ccc(OC)cc1C (stereo not drawn) [Compound 80]"
  IC50, µM: 6.19
- compound: "CCc1cccc(CC)c1-c1cc(OC)c2c(n1)CCCC2Nc1cccc(OC)c1 (stereo not drawn) [Compound 81]"
  IC50, µM: 7.41
- compound: "CCc1cccc(CC)c1-c1cc(OC)c2c(n1)CCCC2Nc1ccccc1CN (stereo not drawn) [Compound 75]"
  IC50, µM: 4.96
- compound: "CCN(c1cccc2ccccc12)C1CCCc2nc(-c3c(C)cccc3C)cc(OC)c21 (stereo not drawn) [Compound 16]"
  IC50, µM: 0.133
- compound: "CCN(c1cccc(C)c1C)C1CCCc2nc(-c3c(C)cccc3C)cc(OC)c21 (stereo not drawn) [Compound 76]"
  IC50, µM: 5.13
- compound: "CCc1cccc(CC)c1-c1cc(OC)c2c(n1)CCCC2Nc1cc(Cl)ccc1CO (stereo not drawn) [Compound 3]"
  IC50, µM: 0.026

Reported IC50 of CCc1cccc(CC)c1-c1cc(OC)c2c([n+]1[O-])CCCC2N(CC)c1cccc2ccccc12 (racemic) [Compound 19] : 0.161

Reported IC50 of CCc1cccc(CC)c1-c1cc(OC)c2c(n1)CCCC2N1CCc2ccc(F)cc2C1 (stereo not drawn) [Compound 45] : 0.878

Reported IC50 of CCc1ccccc1-c1cc(OC)c2c(n1)CCCC2N(CC)c1cccc2ccccc12 (racemic) [Compound 39] : 0.647

Reported IC50 of COc1ccc(C)c(N(C)C2CCCc3nc(-c4c(C)cccc4C)cc(OC)c32)c1 (stereo not drawn) [Compound 69] : 3.22

Reported IC50 of CCc1cccc(CC)c1-c1cc(OC)c2c(n1)CCCC2Nc1ccccc1CCO (stereo not drawn) [Compound 5] : 0.03

Reported IC50 of CCc1cccc(CC)c1-c1cc(OC)c2c(n1)CCCC2Nc1ccc(OC)cc1C (stereo not drawn) [Compound 63] : 2.35

Reported IC50 of CCc1cccc(CC)c1-c1cc(OC)c2c(n1)CCCC2N1CCc2ccc(Cl)cc2C1 (stereo not drawn) [Compound 51] : 1.41

Reported IC50 of CCc1cccc(CC)c1-c1cc(OC)c2c(n1)CCCC2Nc1cnccc1CO (stereo not drawn) [Compound 71] : 3.47

Reported IC50 of COc1cc(-c2c(C)cccc2C)nc2c1C(N(C)c1ccc(Cl)c3ccccc13)CCC2 (stereo not drawn) [Compound 48] : 1.21

Reported IC50 of CCc1cccc(CC)c1-c1cc(OC)c2c(n1)CCCC2Nc1cc(Cl)ccc1C (stereo not drawn) [Compound 53] : 1.49

Reference source for all entries: patent US20090048295A1
